Taken from patent US20180162928A1.

Molecular target: T1, recombinant biotinylated PD-L1 (rhPD-L1/Fc Chimera, R&D Systems 156-B7) (human, UniProt Q9NZQ7 19-238, biotinylated (sites not given))
T1 construct: Bought Fc chimera; also called human PD-L1
T1 sequence (Q9NZQ7 19-238, change not shown): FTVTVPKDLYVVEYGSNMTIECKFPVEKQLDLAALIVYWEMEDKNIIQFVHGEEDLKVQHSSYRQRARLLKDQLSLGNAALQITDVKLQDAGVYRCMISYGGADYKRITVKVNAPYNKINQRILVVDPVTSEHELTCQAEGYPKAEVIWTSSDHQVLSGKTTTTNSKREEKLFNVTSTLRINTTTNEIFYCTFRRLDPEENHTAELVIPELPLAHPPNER
Assay: ELISA, lysate on plate-bound antigen
Protocol: Streptavidin-coated Maxisorp plates (Nunc catalog 436110) were blocked for 1 h in Starting Block T20 (Pierce) and then coated with biotinylated PD-L1 (using same antigen as in panning) or negative controls (an unrelated Fc-fused recombinant protein and human serum albumin) for 1 h. Plates were rinsed with TBST and diluted lysate was applied to plates for 1 h. […]
endpoint.name: ELISA PD-L1 Fc (RSU)

Known results for binders:
binder: ISOP121GR5P1D7 (designed binder, not shown: small tags and cut ends, FN3 domain; E. coli lysate in the ELISA) LPAPKNLVVSRVTEDSARLSWTAPDAAFDSFKIWYQERSIVGEAIFLLVPGSERSYDLTGLKPGTEYIVQIFGVKGGPYSNPLWAPFTT
ELISA PD-L1 Fc (RSU): 792000
--
binder: ISOP194AR9P1C10 (designed binder, not shown: small tags and cut ends, FN3 domain; E. coli lysate in the ELISA) LPAPKNLVVSRVTEDSARPSWEWLEHFDSFLIQYQESEKVGEAIVLTVPGSERSYDLTGLKPGTEYTVSIYGVYNRKVNFYSNPLSAIFTT
ELISA PD-L1 Fc (RSU): 1.39e+07
--
binder: ISOP121BR5P1G3 (designed binder, not shown: small tags and cut ends, FN3 domain; E. coli lysate in the ELISA) LPAPKNLVVSRVTEDSARLSWKQRTSFHFDSFLIQYQESEKVGEAIVLTVPGSERSYDLTGLKPGTEYTVSIYGVPFWQQWQPESNPLSAIFTT
ELISA PD-L1 Fc (RSU): 771000
--
binder: ISOP194AR9P1E8 (designed binder, not shown: small tags and cut ends, FN3 domain; E. coli lysate in the ELISA) LPAPKNLVVSRVTEDSARLSWEWLEHFDSFLIQYQESEKVGEAIVLTIPGSERSYDLTGLKPGTEYTVSIYGVYQRKVEFHSNPLSAIFTT
ELISA PD-L1 Fc (RSU): 3.4e+06
--
binder: ISOP121GR5P1D2 (designed binder, not shown: small tags and cut ends, FN3 domain; E. coli lysate in the ELISA) LPAPKNLVVSRVTEDSARLSWTAPDAAFDSFHILYQERAQSGEAIGLVVPGSERSYDLTGLKPATEYSVQIFGVKGGKLSNPLWAWFTT
ELISA PD-L1 Fc (RSU): 513000
--
binder: ISOP194AR9P1H3 (designed binder, not shown: small tags and cut ends, FN3 domain; E. coli lysate in the ELISA) LPAPKNLVVSRVTEDSARLSWNASWISHNFFDSFLIQYQESEKVGEAIVLTVPGSERSYDLTGLKPGTEYTVSIYGVYERKTAFYSNPLSAIFTT
ELISA PD-L1 Fc (RSU): 1.77e+07

(a) ISOP121GR5P1G7 (designed binder, not shown: small tags and cut ends, FN3 domain; E. coli lysate in the ELISA) LPAPKNLVVSRVTEDSARLSWTAPDAAFDSFHIRYHEYDKNGEAIQLYVPGSERSYDLTGLKPGTEYGVYIHGVKGGGRSKPLWAHFTT
(b) ISOP121GR5P1F7 (designed binder, not shown: small tags and cut ends, FN3 domain; E. coli lysate in the ELISA) LPAPKNLVVSRVTEDSARLSWTAPDAAFDSFGINYVERASEGEAIDLGVPGSERSYDLTGLKPGTEYFVKIFGVKGGIPSVPLWAWFTT
[in] # compare ELISA PD-L1 Fc (RSU) for a vs b ; return the one with the smaller value Your answer should be the label attached to the chosen record.
[out] a
(a: 368000 RSU, b: 697000 RSU)
